- assay_details: reduced mouse 2C T cell binding to pMHC/ICAM-1 vesicles – MLPCN validation set, flow cytometry, LFA-1/ICAM-1 modulator project, pilot screen (AID 2523)
- conditions: 2C mouse CD8+ T cells, at 7 µM, stronger effect = lower value; measured here: CD8+/vesicle+ event percentage
// values below are reported double positive events
observed_property: double positive events (%)

* CCOC(=O)c1c(O)c2c([nH]c1=O)CCCC2 | 69.7
* O=C(/C=C/c1ccccc1)NC(=O)c1ccccc1O | 59.9
* CS(=O)(=O)Nc1ccc([N+](=O)[O-])cc1Oc1ccccc1 | 62.2
* Cc1ccc(C(=O)COC(=O)c2cnccn2)cc1[N+](=O)[O-] | 58.1
* CCOc1ccc(NC2OC(C)C(O)C(O)C2O)c([N+](=O)[O-])c1 (configuration not stated) | 62.7
* CC(=O)O[C@]1(C(C)=O)CC[C@H]2[C@@H]3C[C@H](C)C4=CC(=O)CC[C@]4(C)[C@H]3CC[C@@]21C | 63.9
* COc1ccc(C(=O)NCc2cccnc2)cc1 | 58.3
* O=C(/C=C/c1c[nH]c2ccccc12)c1cccc2ccccc12 | 61.4
* COc1ccc(-c2cc(=O)oc3cc(OC(C)C(=O)O)ccc23)cc1 (configuration not stated) | 63.4
* CCCC(=O)Nc1ccccc1NC(C)=O | 65.9
* CC1(C)CC(=O)C2=C(C1)c1c(ccc3ccccc13)NC2c1ccco1 (configuration not stated) | 57
* CN/C(=C/[N+](=O)[O-])NCCSCc1ccc(CN(C)C)o1 | 64.5
* COc1ccc2[nH]c3c(=O)n(/N=C/[C@H]4C(C)C=C(C)CC4C)c(=O)[nH]c3c2c1 (some centres not stated) | 57.4
* Cc1ccc2c(c1)C(C)(C)[C@]1(C)NC(=O)CCN21 | 65.2
* CCN1/C(=C/C=C/C=C/c2sc3ccccc3[n+]2CC)Sc2ccccc21 | 81.6
* CN(C)c1ccc(CNCCC(Cc2ccccc2)c2ccco2)cc1 (configuration not stated) | 58.2
* NC(N)=NC(N)=Nc1ccc2ccccc2c1 | 58.7
* COc1ccc(-c2cc(=Nc3ccc(C)cc3)c3ccccc3o2)cc1 | 60.2
* CC(=O)OCC(=O)[C@@]1(O)CC[C@H]2[C@@H]3CCC4=CC(=O)C=C[C@]4(C)[C@H]3[C@@H](O)C[C@@]21C | 66.4
* CC(C)C(=O)Nc1c(O)c2ccccc2[nH]c1=O | 62
* Cc1cn([C@H]2C[C@H](N=[N+]=[N-])[C@@H](CO)O2)c(=O)[nH]c1=O | 61.7
* COc1ccc2[nH]cc(C3N4CC5(C)CN3CC(C)(C4)C5=O)c2c1 (configuration not stated) | 59.2

* * *

- experimental_target: Regulator of G-protein signaling 4 (Homo sapiens) + Guanine nucleotide-binding protein G(o) subunit alpha (Homo sapiens) (UniProt P49798+P09471)
- Sequence (P09471 whole entry, looked up): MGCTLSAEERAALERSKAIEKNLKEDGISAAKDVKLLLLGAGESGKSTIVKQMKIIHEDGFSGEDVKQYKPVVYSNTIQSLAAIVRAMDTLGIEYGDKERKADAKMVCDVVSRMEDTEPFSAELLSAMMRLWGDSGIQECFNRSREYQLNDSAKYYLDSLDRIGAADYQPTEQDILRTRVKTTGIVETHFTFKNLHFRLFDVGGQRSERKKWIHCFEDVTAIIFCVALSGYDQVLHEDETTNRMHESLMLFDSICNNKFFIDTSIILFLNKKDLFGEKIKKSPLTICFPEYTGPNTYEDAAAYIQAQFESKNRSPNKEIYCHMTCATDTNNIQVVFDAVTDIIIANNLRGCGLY
- Sequence (P49798 whole entry, looked up): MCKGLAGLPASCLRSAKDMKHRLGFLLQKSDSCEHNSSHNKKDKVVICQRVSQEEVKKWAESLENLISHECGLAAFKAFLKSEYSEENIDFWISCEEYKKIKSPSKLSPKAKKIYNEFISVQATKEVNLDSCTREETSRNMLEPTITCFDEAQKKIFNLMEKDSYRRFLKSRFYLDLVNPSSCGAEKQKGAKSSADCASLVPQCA
- assay_details: small molecules altering RGS protein interactions with GNAO1 – biochemical, multiplexed beads, flow cytometry, RGS4/7/8/16/19, primary screen (AID 1504);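 further: fluorescently labeled Galpha-o bound to GDP with aluminium fluoride binding biotinylated RGS beads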
- conditions: multiplexed bead flow cytometry, at 10 µM
This is one part of the list.
Respond with 1 (yes) for RGS4–Galpha-o binding response values of 90% and above, 0 (no) for values below.

• CN(CC(=O)NC1CCCCC1)S(=O)(=O)c1cccc2cccnc12 = 1 (yes)
• Cc1ccc(C)c(OCC(=O)N2CCN(C(=O)c3ccco3)CC2)c1 = 0 (no)
• Cc1ccc(-n2c(SCC(=O)Nc3ncc(Cl)cc3Cl)nc3ccccc32)cc1 = 0 (no)
• Cc1ccccc1NC(=S)N(CCCN1CCOCC1)Cc1cccs1 = 1 (yes)
• Cc1cc(C)nc(/N=C2\NC(=O)CC(C(=O)O)N2c2ccc(Cl)cc2Cl)n1 (stereo not given) = 1 (yes)
• C/C(=C/C(=O)N1CCN(C)CC1)C(=O)O = 1 (yes)
• CCN(CC)S(=O)(=O)c1cccc(-c2n[nH]c(=S)n2/N=C/c2ccc(C(=O)OC)cc2)c1 = 1 (yes)
• Oc1ccc(-c2onc3ccc(Cl)cc23)cc1 = 1 (yes)
• O=C(NC1CC1)c1ccc2c(c1)NC(=O)c1ccccc1S2 = 1 (yes)
• Cc1ccc(OCC(O)CN2CCN(CC(O)COc3ccc(C)cc3Cl)CC2)c(Cl)c1 (stereo not given) = 1 (yes)
• Cc1ccccc1CS(=O)(=O)CC1(O)CCN(C(=O)c2cccc(C(F)(F)F)c2)CC1 = 1 (yes)
• CCCn1c(C)cc(C(=O)COC(=O)c2c(C)nn(-c3ccccc3)c2C)c1C = 0 (no)
• CC(C)Cc1nc(Nc2ccc(S(=O)(=O)N3CCCC3)cc2)c2nnn(Cc3ccccc3)c2n1 = 1 (yes)
• CC(NC(=O)COC(=O)C1CCN(S(=O)(=O)c2ccccc2C(F)(F)F)CC1)c1ccccc1 (stereo not given) = 1 (yes)
• C/C(=N\NS(=O)(=O)c1ccc(Br)cc1)c1cccs1 = 1 (yes)
• CN(C)CCNC(=O)/C(=C/c1cccc([N+](=O)[O-])c1)NC(=O)c1ccccc1 = 1 (yes)
• CC(C)(C)NC(=O)c1cccc(NC(=O)Cc2ccc(Br)cc2)c1 = 0 (no)
• NC(=O)Cc1ccc2sc(-c3ccccc3)nc2c1 = 1 (yes)
• O=C(Nc1cccc(F)c1)c1coc(=O)c(Br)c1 = 0 (no)
• CCOc1cc(C(=O)N2CCc3cc(OC)c(OC)cc3C2)ccc1OC(F)F = 1 (yes)
• O=[N+]([O-])C(=c1ccc2c(c1)N1C3=C(CCCC3)CC3CCCCC31N=2)[N+](=O)[O-] (stereo not given) = 0 (no)
